Target: Tyrosine-protein kinase JAK3 (Homo sapiens, UniProt P52333)
Sequence (P52333 whole entry): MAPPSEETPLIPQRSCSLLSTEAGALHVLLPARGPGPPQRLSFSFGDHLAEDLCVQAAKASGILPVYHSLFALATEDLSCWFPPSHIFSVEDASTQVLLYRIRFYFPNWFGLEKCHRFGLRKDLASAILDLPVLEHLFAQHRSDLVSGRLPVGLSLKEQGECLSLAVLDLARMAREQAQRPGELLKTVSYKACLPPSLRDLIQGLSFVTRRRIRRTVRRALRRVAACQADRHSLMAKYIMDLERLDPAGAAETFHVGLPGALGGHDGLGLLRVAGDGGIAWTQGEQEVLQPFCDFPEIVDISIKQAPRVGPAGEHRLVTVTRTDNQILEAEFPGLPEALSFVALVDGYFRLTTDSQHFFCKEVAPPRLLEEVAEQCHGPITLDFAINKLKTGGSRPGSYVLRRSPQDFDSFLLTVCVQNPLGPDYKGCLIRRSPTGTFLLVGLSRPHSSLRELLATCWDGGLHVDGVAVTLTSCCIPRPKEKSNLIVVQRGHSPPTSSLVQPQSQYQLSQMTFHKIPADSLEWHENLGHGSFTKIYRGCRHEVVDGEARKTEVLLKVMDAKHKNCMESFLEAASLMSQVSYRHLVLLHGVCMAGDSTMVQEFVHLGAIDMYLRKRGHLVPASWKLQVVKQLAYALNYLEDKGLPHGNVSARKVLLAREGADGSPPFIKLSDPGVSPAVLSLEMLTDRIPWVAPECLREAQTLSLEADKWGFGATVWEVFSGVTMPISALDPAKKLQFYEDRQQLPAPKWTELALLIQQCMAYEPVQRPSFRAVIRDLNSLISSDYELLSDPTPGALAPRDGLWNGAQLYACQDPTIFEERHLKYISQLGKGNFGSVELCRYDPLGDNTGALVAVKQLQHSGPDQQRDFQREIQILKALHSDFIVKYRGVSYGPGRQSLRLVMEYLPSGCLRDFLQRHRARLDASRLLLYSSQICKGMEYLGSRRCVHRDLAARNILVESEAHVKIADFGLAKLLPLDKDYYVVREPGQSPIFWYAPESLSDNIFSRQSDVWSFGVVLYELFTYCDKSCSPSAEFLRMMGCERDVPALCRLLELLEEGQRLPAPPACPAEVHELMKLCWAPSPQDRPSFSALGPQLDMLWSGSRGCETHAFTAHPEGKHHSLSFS
Assay: Enzymatic Inhibition Assay: Substrate (NH2-[…]-CO2), internal standard peptide (NH2-[…]-CO2) and product peptide (for standard curve only) (NH2-[…]-Pi-FELVKK-CO2), were purchased from AnaSpec (Fremont, Calif., USA). JAK1-JH1JH2 (574-1154 with a His-GST Tag and a C-terminal tev (ENLYFQ-G) cleavage site), JAK3-JH1JH2 (512-1124 with a GST Tag and a C-terminal tev (ENLYFQ-G) cleavage site), and Tyk2-JH1JH2 (8H_tev_580-1182-C936A-C1142A with a C-terminal tev (ENLYFQ-G) cleavage site) were purified internally. JAK2-JH1JH2 (532-1132 with a GST tag and C-terminal tev (ENLYFQ-G) cleavage site), was purchased from Invitrogen. LC/MS grade water and acetonitrile (ACN), were purchased from HoneyWell, Burdick & Jackson (Muskegon, Mich., USA). Dimethylsulfoxide 99.8% (DMSO) and trifluoroacetic acid 99.5% (TFA) were purchased from EMD Chemical (Gibbstown, N.J., USA). Adenosine triphosphate (ATP), 4-morpholinepropanesulfonic acid (MOPS), magnesium chloride (MgCl2), ethylenediaminetetraacetic acid (EDTA), dithiothreitol (DTT), formic acid>95% (FA) and Tween-20 were purchased from Sigma (St Louis, Mo., USA). 384-well polypropylene plates, Cat#781280 were purchased from Greiner (Monroe, N.C.), RapidFire™ cartridge A C4 Column (Agilent Technologies, Santa Clara, Calif.).The HTMS experiments were performed in positive ionization mode on a RapidFire 300 instrument (Agilent Technologies, Santa Clara, Calif.), coupled with an ABSiex QTrap 4000 system with an Electrospray Ionization source (RF-MS) (Concord, ON, Canada). The RapidFire system was run with 3 Agilent 1200 series isocratic pumps Agilent Technologies (Santa Clara, Calif.) and one peristaltic pump model ISM832C from Ismatec (Wertheim, Germany). The entire system was operated using the RapidFire software interfaced with Analyst software for the mass spectrometer.Assay Protocol11-point dosing series were made for each compound by serially diluting 1:3 or 1:4 in DMSO, with point 12 being a DMSO control. From the serial dilution plates, sample was transferred to a 384 wells assay plate (#781280, Greiner, Monroe, N.C.) using Labcyte Echo (Sunnyvale, Calif.), or Biosero ATS (San Diego, Calif.). The compounds were tested in duplicate. Column 12 was used for positive controls, and column 24 contained negative controls with no enzyme added. A compound from our internal collection, with inhibitory activity for JAK isoforms, was used as a reference compound. The final concentration of DMSO was ≤0.25% in a 20 μL reaction. The enzyme reaction was initiated by the addition of 10 μL of enzyme and ATP mixture to 10 μL of substrate solution prepared in reaction buffer (50 mM MOPS pH 7.5, 10 mM MgCl2, 1 mM EDTA, 2 mM DTT, 0.002% Tween-20). The Tyk2 enzyme was pre-incubated with 2 mM ATP for 30 min prior to the reaction initiation. Immediately after the addition of the enzyme to the reaction mixture, the plate was centrifuged at 1000 rpm for 1 minute and incubated at 25° C. for 45 minutes for JAK3 and 90 minutes for JAK1, JAK2 and Tyk2. The reaction was quenched by the addition of 20 μL of 0.5% TFA containing 0.15 μM of internal standard peptide using Multidrop Combi reagent dispenser (Thermo Scientific, Waltham, Mass.). Several wells in column 24 were typically used for the product standard curve. After the quench, the assay plate was centrifuged at 3000 rpm for 3 minutes and sealed with pierceable aluminum foil (Cat#06644-001, Agilent) using a PlateLoc (Agilent Technologies, Santa Clara, Calif.). The plates then were transferred on to the RapidFire for the MS analysis. Compound inhibition was assessed by a decrease of the phosphorylated product levels in sample wells compared to the non-inhibited enzyme reaction.
READOUT_LABEL: pIC50
Please express pIC50 as -log10 of the molar concentration.

CHEM_SMILES: N#CC[C@H]1CC[C@H](n2c(CO)nc3cnc4[nH]ccc4c32)CC1
pIC50: 7.87

**Query** Which pIC50 is reported for this compound? Cc1nc2cnc3[nH]ccc3c2n1[C@H]1CC[C@H](CC#N)CC1
**Result** 7.91
